assay: Enzymatic kinetic measurements of purified proteins with compound A as substrate; assay type: biochemical; settings: purified protein, compound A 0-1000 μM as substrate
Measured Parameter: Kcat (S^−1)
Report the figure in S^−1 without appending any unit label.

For SEQ ID NO: 46: RdpA mutant L82H + V187L + F182W + R104G + T112S (protein) MHAALSPLSQRFERIAVQPLTGVLGAEITGVDLREPLDDSTWNEILDAFHTYQVIYFPGQAITNEQHIAFSRRFGPVDPVPHLKSIEGYPEVQMIRREANESGGVIGDDWHSDSTFLDAPPAAVVMRAIDVPEHGGDTGFLSMYTAWETLSPTMQATIEGLNVVHSATRVFGSLYQAQNRRWSNTSLKVMDVDAGDRETVHPLVVTHPGSGRKGLYVNQVYCQRIEGMTDAESKPLLQFLYEHATRFDFTCRVRWKKDQVLVWDNLCTMHRAVPDYAGKFRYLTRTTVGGVRPAR , what is its reported Kcat? 0.15

meta.source: patent US20250163449A1
